The measurements presented in this section are drawn from patent US20140271653A1.

- measured on: T1, RSV-F.mmh (Respiratory Syncytial Virus)
- T1 construct: also called recombinant RSV-F; soluble monomeric RSV-F
- assay info: SPR (Biacore), mAb captured via Fc, soluble RSV-F.mmh injected, 25 C
Listed here are binders together with their documented koff.
Your answer should be a plain number; it is taken to be in s⁻¹.

# annotated cases, reported koff shown
binder	unit name	observed result
H1M3624N (antibody, V domains shown, also called H1M2634N) VH: QVQLEQSGAEVKKPGTSVRISCKASGDIFTGYYMNWVRQAPGQGLEWMGWINTNSGGTYFSQRFQGRVTLTRDTSIRTAYMELSRLRSDDTAVYYCARMFYDILTGSDVFDIWGQGTMVTVSS VL: DIQMTQSPSSLSASVGDRVTITCRASQDIRNDLGWYHQKPGKAPKCLIYGASSLQSGVPSRFSGSGSGTEFTLTISSLQPEDFATYYCLQHKNYMYTFGQGTKLEIK	s⁻¹	0.000183
H1M3622N (antibody, V domains shown) VH: QVQLQQWGAGLLKPSETLSLTCAVYGGSLSDYYWSWIRQPPGKGLEWIGEINHSGDTNYDPSLKSRLTISVDTSKNQFSLKLNSVTAADTAVYYCASLYFNFWMWGRGALVTVSS VL: DIVMTQTPLSSPVILGQPASISCRSSQSLVYSDGNTYLSWLQQRPGQPPRLLIYKISNRFSGVPDRFSGSGTGTDFTLKISRVEAEDVGIYYCMQTTQFPLTFGGGTKVEIK	s⁻¹	9.13e-05

Exam item: Which koff is reported for this binder? H1M3621N (antibody, V domains shown) VH: QVQLEQSGAEVKKPGASVRISCKASGDTFTGYYINWVRQAPGQGLEWMGWINTNSGGTYFSQKFQVRVILTRDTSINTAYMELSRLRSDDTAVYYCARMFYDILTNSDIFDIWGQGTMVTVSS VL: DIQMTQSPSSLSASVGDRVTITCRASQDIRNDLGWYQQKPGKAPKCLIYGASSLQSGVPSRFSGSGSGTEFTLTISSLQPEDFATYYCLQHKNYMYTFGQGTKLEIK
Marked response: 0.000208
